I'd appreciate it if you could supply IC50 values for the items below.
# Assay Target: MNK2 (Homo sapiens (Human))
# Sequence (Q9HBH9 84-388): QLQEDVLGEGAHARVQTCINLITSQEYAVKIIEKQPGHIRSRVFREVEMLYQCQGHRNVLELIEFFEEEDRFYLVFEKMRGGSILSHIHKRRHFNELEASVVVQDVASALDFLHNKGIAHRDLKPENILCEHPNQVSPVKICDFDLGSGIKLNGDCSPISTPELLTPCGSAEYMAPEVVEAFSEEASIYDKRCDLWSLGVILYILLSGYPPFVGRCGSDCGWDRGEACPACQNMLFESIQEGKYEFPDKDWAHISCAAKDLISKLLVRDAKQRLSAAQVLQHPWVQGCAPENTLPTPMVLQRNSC
# Protocol Description: In vitro MNK kinase assay (Caliper LabChip mobility shift)
# Type: biochemical
# Experimental Conditions: enzymatic, 250 μM ATP; read-out: IC50 Mnk2

Ask | Quote IC50 reported for CCC1(NC(C)=O)CCN(C(=O)c2ccc(-c3ccc4ncc(-c5ccc(C#N)cc5)n4n3)cc2)CC1 please.
Reply | < 0.1 µM

Ask | Quote IC50 reported for CC(=O)Nc1cc(-c2ccc3ncc(-c4ccc(C#N)cc4)n3c2)ccc1C(=O)N1CCNCC1 please.
Reply | < 0.1 µM

Ask | Quote IC50 reported for N#Cc1ccc(-c2cnc3ccc(-c4ccc(C(=O)N5CCC(CN)CC5)cc4)cn23)cc1 please.
Reply | < 0.1 µM

Ask | Quote IC50 reported for CCC1(N)CCN(C(=O)c2ccc(-c3ccc4ncc(-c5ccc(C#N)cc5)n4c3)cc2)CC1 please.
Reply | < 0.1 µM

Ask | Quote IC50 reported for N#Cc1ccc(-c2cnc3ccc(-c4ccc(C(=O)N5CCN(Cc6ccc(C(N)=O)cc6)CC5)cc4)cn23)cc1 please.
Reply | < 0.1 µM

Ask | Quote IC50 reported for CC(C)N1CCN(C(=O)c2ccc(-c3ccc4ncc(-c5ccc(C#N)cc5)n4n3)cc2)CC1 please.
Reply | < 0.1 µM

Ask | Quote IC50 reported for COc1cc(C(=O)N2CCN(C)CC2)ccc1-c1ccc2ncc(-c3ccc(C#N)cc3)n2n1 please.
Reply | < 0.1 µM

Ask | Quote IC50 reported for Cc1nnc(C2(C)CCN(C(=O)c3ccc(-c4ccc5ncc(-c6ccc(C#N)cc6)n5c4)cc3)CC2)o1 please.
Reply | < 0.1 µM

Ask | Quote IC50 reported for CC(=O)Nc1cc(-c2ccc3ncc(-c4ccc(C#N)cc4)n3n2)ccc1C(=O)N1CCC(N(C)C)CC1 please.
Reply | < 0.1 µM

Ask | Quote IC50 reported for CN1CCN(C(=O)c2ccc(-c3ccc4ncc(-c5ccc(C#N)cc5)n4c3)cc2C(F)(F)F)CC1 please.
Reply | < 1 µM

Ask | Quote IC50 reported for CC(C)(C)N1CCN(C(=O)c2ccc(-c3cn4c(-c5ccc(C#N)cc5)cnc4cn3)cc2)CC1 please.
Reply | < 1 µM

Ask | Quote IC50 reported for CN1CCN(C(=O)c2ccc(-c3ccn4ncc(-c5ccc(C#N)cc5)c4n3)cc2)CC1 please.
Reply | < 0.1 µM

Ask | Quote IC50 reported for CC(=O)NC1CCN(C(=O)c2ccc(-c3ccc4ncc(-c5ccc(C#N)cc5)n4n3)cc2)CC1 please.
Reply | < 0.1 µM

Ask | Quote IC50 reported for CN1CCN(C(=O)c2ccc(-c3cn4c(-c5ccc(C#N)cc5)cnc4cn3)c(O)c2)CC1 please.
Reply | < 1 µM

Ask | Quote IC50 reported for N#Cc1ccc(-c2cnc3ccc(-c4ccc(C(=O)N5CCC(O)CC5)cc4)nn23)cc1 please.
Reply | < 0.1 µM

Ask | Quote IC50 reported for CN(CC(=O)N1CCOCC1)C(=O)c1ccc(-c2ccc3ncc(-c4ccc(C#N)cc4)n3c2)cc1 please.
Reply | < 0.1 µM

Ask | Quote IC50 reported for COc1cc(-c2cn3c(-c4ccc(C#N)cc4)cnc3cn2)ccc1C(=O)N1CCN(C)CC1 please.
Reply | < 1 µM

Ask | Quote IC50 reported for CN1CCCN(C(=O)c2ccc(-c3ccc4ncc(-c5ccc(C#N)cc5)n4c3)cc2)CC1 please.
Reply | < 0.1 µM

Ask | Quote IC50 reported for NC1CCN(C(=O)c2ccc(-c3ccc4ncc(-c5ccc(Cl)cc5)n4c3)cc2)CC1 please.
Reply | < 0.1 µM

Ask | Quote IC50 reported for CC1(N)CCN(C(=O)c2ccc(-c3ccc4ncc(-c5ccc(C#N)cc5)n4n3)cc2)CC1 please.
Reply | < 0.1 µM

Ask | Quote IC50 reported for CN1CCN(C2CCN(C(=O)c3ccc(-c4ccn5ncc(-c6ccc(C#N)cc6)c5n4)cc3)CC2)CC1 please.
Reply | < 0.1 µM

Ask | Quote IC50 reported for CC(C)(C)N1CCN(C(=O)c2ccc(-c3cn4c(-c5ccc(C(N)=O)cc5)cnc4cn3)cc2)CC1 please.
Reply | < 0.1 µM

Ask | Quote IC50 reported for NC(=O)c1ccc(-c2cn3c(-c4ccc(Cl)cc4)cnc3cn2)cc1 please.
Reply | < 1 µM

Ask | Quote IC50 reported for CNC1CCN(C(=O)c2ccc(-c3ccc4ncc(-c5ccc(C#N)cc5)n4n3)cc2)CC1 please.
Reply | < 0.1 µM

Ask | Quote IC50 reported for CN1CCN(C(=O)c2ccc(-c3ccc4ncc(-c5ccc6c(c5)CC(=O)N6)n4n3)cc2)CC1 please.
Reply | < 0.1 µM

Ask | Quote IC50 reported for O=C1Cc2cc(-c3cnc4ccc(-c5ccc(C(=O)N6CCC(N7CCOCC7)CC6)cc5)nn34)ccc2N1 please.
Reply | < 0.1 µM

Ask | Quote IC50 reported for Cc1cc(-c2ccc3ncc(-c4ccc(C#N)cc4)n3n2)ccc1C(=O)N1CCN(C)CC1 please.
Reply | < 0.1 µM

Ask | Quote IC50 reported for N#Cc1ccc(-c2cnc3ccc(-c4ccc(C(=O)N5CCC(N6CCOCC6)CC5)cc4)cn23)cc1 please.
Reply | < 0.1 µM

Ask | Quote IC50 reported for N#Cc1ccc(-c2cnn3ccc(-c4ccc(C(=O)N5CCOCC5)c(O)c4)nc23)cc1 please.
Reply | < 0.1 µM

Ask | Quote IC50 reported for CN1CCN(C2(C)CCN(C(=O)c3ccc(-c4ccc5ncc(-c6ccc(C#N)cc6)n5c4)cc3)CC2)CC1 please.
Reply | < 0.1 µM

Ask | Quote IC50 reported for CN1CCN(C(=O)c2ccc(-c3ccc4ncc(-c5ccc(C#N)cc5)n4c3)c(O)c2)CC1 please.
Reply | < 0.1 µM

Hey, just so you know, these numbers are from patent US9908886B2.
